Test system: 699152-130-R-J1-PDC complex spheroid viability;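 also: spheroids exposed to agents for 7 days before viability reading; percent of DMSO vehicle control viability so 100% = vehicle and 0% = no viable signal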
Assay: Anticancer human tumor 699152-130-R-J1-PDC patient-derived pancreatic carcinoma cell line growth inhibition [POLQ]
Conditions: second compound 3.16 µM; first compound 0.316 µM; active compounds read low
Method: Multicellular complex tumor spheroid response to Polymerase (POL) inhibitors (novobiocin, ART-558, RP6685) in combination with a variety of drugs and investigational agents in selected tumor cell lines The POL inhibitors (novobiocin, ART-558, and RP6685) were evaluated both individually and in combination with standard of care and investigational anticancer small molecules within a complex spheroid model of solid tumors. . […]
measurement_label: viability, T/C (%)

[[record]]
compound = "CNCc1ccc(-c2[nH]c3cc(F)cc4c3c2CCNC4=O)cc1 + Nc1ccc(C#CCN(C(=O)Cc2ncc(C(F)(F)F)cc2C(F)(F)F)c2ccc(F)cc2)nn1"
unit_abbreviation = "%"
experimental_value = 109

[[record]]
compound = "Nc1ccn(C2OC(CO)C(O)C2(F)F)c(=O)n1 (stereo not given) + COC1C(OC(N)=O)C(O)C(Oc2ccc3c(O)c(NC(=O)c4ccc(O)c(CC=C(C)C)c4)c(=O)oc3c2C)OC1(C)C"
unit_abbreviation = "%"
experimental_value = 51.4

[[record]]
compound = "CC1COCCN1c1cc(-c2ccnn2C)c2ccnc(-c3ccn[nH]3)c2n1 (stereo not given) + COC1C(OC(N)=O)C(O)C(Oc2ccc3c(O)c(NC(=O)c4ccc(O)c(CC=C(C)C)c4)c(=O)oc3c2C)OC1(C)C"
unit_abbreviation = "%"
experimental_value = 76.8

[[record]]
compound = "CC1COCCN1c1cc(C2(O)CC3CCC(C2)O3)c2cnn(-c3ccn[nH]3)c2n1 (stereo not given) + COC1C(OC(N)=O)C(O)C(Oc2ccc3c(O)c(NC(=O)c4ccc(O)c(CC=C(C)C)c4)c(=O)oc3c2C)OC1(C)C"
unit_abbreviation = "%"
experimental_value = 65

[[record]]
compound = "COc1ccc([C@@H](O)c2cc(-c3ncnc4cc(N5CCOCC5)ccc34)c(F)cc2Cl)nn1 + COC1C(OC(N)=O)C(O)C(Oc2ccc3c(O)c(NC(=O)c4ccc(O)c(CC=C(C)C)c4)c(=O)oc3c2C)OC1(C)C"
unit_abbreviation = "%"
experimental_value = 86.6

[[record]]
compound = "COc1cc2cc(C(=O)CCC(=O)O)sc2cc1OC + Nc1ccc(C#CCN(C(=O)Cc2ncc(C(F)(F)F)cc2C(F)(F)F)c2ccc(F)cc2)nn1"
unit_abbreviation = "%"
experimental_value = 104

[[record]]
compound = "O=C(Nc1ccc(O)c(NS(=O)(=O)c2ccc(F)cc2)c1)c1ccc(-c2ccccc2)cc1 + Cc1cccc(N(C)C(=O)C2C(O)CCN2c2nc(C)cc(C(F)(F)F)c2C#N)c1"
unit_abbreviation = "%"
experimental_value = 111

[[record]]
compound = "C=CC(=O)N1CCN(c2nc(=O)n(-c3c(C)ccnc3C(C)C)c3nc(-c4c(O)cccc4F)c(F)cc23)C(C)C1 (stereo not given) + COC1C(OC(N)=O)C(O)C(Oc2ccc3c(O)c(NC(=O)c4ccc(O)c(CC=C(C)C)c4)c(=O)oc3c2C)OC1(C)C"
unit_abbreviation = "%"
experimental_value = 99.8

[[record]]
compound = "CC1COCCN1c1cc(C2(S(C)(=N)=O)CC2)nc(-c2ccnc3[nH]ccc23)n1 (stereo not given) + COC1C(OC(N)=O)C(O)C(Oc2ccc3c(O)c(NC(=O)c4ccc(O)c(CC=C(C)C)c4)c(=O)oc3c2C)OC1(C)C"
unit_abbreviation = "%"
experimental_value = 98.1

[[record]]
compound = "COc1cccc2c1C(=O)c1c(O)c3c(c(O)c1C2=O)CC(O)(C(=O)CO)CC3OC1CC(N)C(O)C(C)O1 (stereo not given) + COC1C(OC(N)=O)C(O)C(Oc2ccc3c(O)c(NC(=O)c4ccc(O)c(CC=C(C)C)c4)c(=O)oc3c2C)OC1(C)C"
unit_abbreviation = "%"
experimental_value = 41.5

